In this section we review reported melting point values for a set of compounds.
READOUT_LABEL: melting point

[[record]]
compound = "O=C(O)C(Cc1ccccc1)Oc1ccc2cc(-c3ccc(-c4ccccc4)[nH]3)ccc2c1 (stereo unspecified)"
measured_value = "176 to 178 °C"

[[record]]
compound = "O=C1CCC(N2C(=O)c3cccc(NCc4ccco4)c3C2=O)C(=O)N1 (stereo unspecified)"
measured_value = "171 to 173 °C"

[[record]]
compound = "CCC1(CCn2ccnc2)SCCS1"
measured_value = "118 to 121 °C"

[[record]]
compound = "FC(F)(F)Sc1[nH]ccc1-c1ccc(Cl)cc1"
measured_value = "44 to 46 °C"

[[record]]
compound = "O=CC(=C(Cl)c1ccc(Cl)cc1Cl)c1ccc(Cl)cc1"
measured_value = "128 °C"

[[record]]
compound = "CCc1cccc(CC)c1NC(=O)C1c2ccccc2COc2ccc(Br)cc21 (stereo unspecified)"
measured_value = "234 to 235 °C"

[[record]]
compound = "NC(=NO)c1ncn2c1COC(=O)c1c(Cl)cccc1-2"
measured_value = "252 to 254 °C"

[[record]]
compound = "Clc1cccc(CNc2n[nH]c3ncnc(Nc4cccc(Cl)c4)c23)c1"
measured_value = "158 to 163 °C"

[[record]]
compound = "CCCCCCCCCCCC(=O)OCn1cc(F)c(=O)[nH]c1=O"
measured_value = "114 °C"

[[record]]
compound = "Cn1nc(-c2ccc(F)cc2)c(-c2ccncc2)c1C(O)CCc1ccccc1 (stereo unspecified)"
measured_value = "62 to 65 °C"

[[record]]
compound = "O=[N+]([O-])c1ccccc1-c1nnc(-c2ccc(C3OCCO3)cc2)o1"
measured_value = "88 to 89 °C"

[[record]]
compound = "CC(C)(C(N)=O)C(O)(Cn1cncn1)c1ccc(Cl)cc1Cl (stereo unspecified)"
measured_value = "162 to 163 °C"

[[record]]
compound = "CCC#CCOc1cc2c(cc1/C=C/c1ccc(C(=O)OCC)cc1)C(C)(C)CCC2(C)C"
measured_value = "80 to 82 °C"

[[record]]
compound = "CN1CCN(C(=O)c2ccc3n2Cc2ccccc2N(C(=O)c2ccc(C4CCCCC4)cc2)C3)CC1"
measured_value = "134 to 136 °C"

[[record]]
compound = "COCCNC(=O)COc1ccc(C(=O)CN2CCN(c3ccncc3)CC2)cc1"
measured_value = "142 to 145 °C"

[[record]]
compound = "O=C(Cc1cncs1)c1ccc(Cl)cc1Cl"
measured_value = "75 to 77 °C"

[[record]]
compound = "COC(=O)c1nc(Cl)c(F)c(N)c1Br"
measured_value = "138 to 139 °C"

[[record]]
compound = "O=c1[nH]c2ccc(I)cc2cc1[N+](=O)[O-]"
measured_value = "279 to 282 °C"

[[record]]
compound = "Fc1ccc(C(CCCN2CCN(c3cc4ccccc4cn3)CC2)c2ccc(F)cc2)cc1"
measured_value = "116 to 118 °C"

[[record]]
compound = "Cc1nc2c(OCc3c(Cl)ccc([N+](=O)[O-])c3Cl)cccn2c1Br"
measured_value = "217 to 219 °C"

[[record]]
compound = "CSc1cc(S(F)(F)(F)(F)F)ccc1C#N"
measured_value = "101 to 102 °C"


----------
READOUT_LABEL: melting point

[[record]]
molecule = "CC(C)c1ccc(N(Cc2ccc(F)cc2)C(=O)Nc2c(C(C)C)cccc2C(C)C)cc1"
measured_value = "80 °C"

[[record]]
molecule = "COc1ccc(C(c2ccc(OC)c(OCc3ccccc3)c2)n2cncn2)cc1OCc1ccccc1"
measured_value = "96 to 99 °C"

[[record]]
molecule = "COC(=O)c1ccc(OCCF)cc1"
measured_value = "77 °C"

[[record]]
molecule = "Cc1sc2c(Br)c3ccccc3c(-c3ccc(O)c(N)c3)c2c1C"
measured_value = "173 to 175 °C"

[[record]]
molecule = "CC(=O)OC1Cc2ccc(F)cc2/C1=C/C(N)=O (stereo not given)"
measured_value = "202 to 203 °C"

[[record]]
molecule = "CCN1C(=O)N(c2ccc(C#N)c(C(F)(F)F)c2)C(=O)C1(CO)CO"
measured_value = "155 to 156 °C"

[[record]]
molecule = "Cn1c(=O)n(Cc2ccccc2)c(=O)c2cc(C(=O)CCc3ccccc3)ccc21"
measured_value = "155 °C"

[[record]]
molecule = "COc1ccc(Nc2cccc3c2C(=O)N([C@@]2(C)CCC(=O)NC2=O)C3=O)c(OC)c1"
measured_value = "255 to 257 °C"

[[record]]
molecule = "O=C(CC1CN2C(=O)CC2O1)OC(c1ccccc1)c1ccccc1 (stereo not given)"
measured_value = "64.1 to 64.9 °C"

[[record]]
molecule = "CC(=O)N1N=C(c2ccncc2)OC1(C)C"
measured_value = "117 to 118 °C"

